Catalogue of protein stability index readings, one per entry.
Experiment: protein stability index of a GFP-peptide fusion (GPS, HEK-293T) (PSI 1-6); higher = more stable;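 further: 24-mer peptide tiles fused after GFP, lentivirally expressed, FACS-sorted into six equal bins by GFP/DsRed ratio, decoded by Illumina sequencing, PSI is the read-weighted mean bin number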
Details: treatment: DMSO; c terminus: a fixed tail appended
# output: bare number, no unit

{"Sequence": "IDKKPVSEKTDESDTIPYLKKFLY [MIA2]", "Assay Readout": "protein stability index", "Readout Number": 2.83}
{"Sequence": "KVRSLETENSALQLQVTEREEVRG [LMNB1]", "Assay Readout": "protein stability index", "Readout Number": 5.22}
{"Sequence": "QLEKPKPVKPVTFSTGIKMGQHIS [MNAT1]", "Assay Readout": "protein stability index", "Readout Number": 3.36}
{"Sequence": "FSEQVFKVASSDLVNMGISVVSYT [FLOT1]", "Assay Readout": "protein stability index", "Readout Number": 2.66}
{"Sequence": "RGLIPVKRGPSSRSGGPPPKKSAP [RBMY1A1]", "Assay Readout": "protein stability index", "Readout Number": 4.3}

Value of measured protein stability index for the entry GKKFLLLSINRYERKKNLTLALEA [ALG2] : 2.35

Value of measured protein stability index for the entry LFTSFQEPPCEGNTFFCHSNMCIN [NETO1] : 2.14

Value of measured protein stability index for the entry FMTTNVPNVYPAAPQGGMAALNMS [ADD1] : 2.73

Value of measured protein stability index for the entry VFITILIIALIALSVGQYNCPGQY [CD69] : 2.6

Value of measured protein stability index for the entry ISCVERGWSTPPKCRSTISAEKCG [CFHR2] : 2.88

Value of measured protein stability index for the entry PFDGLLEERALLLGRMGKHEQALF [VPS39] : 2.59

* * *

Assay: protein stability index of a GFP-peptide fusion (GPS, HEK-293T) (PSI 1-6); higher = more stable
Settings: treatment: DMSO; c terminus: a fixed tail appended
Catalogue of protein stability index readings, one per entry.
# output: bare number, no unit

{"Sequence": "IPERLSIFCRDTQTVFQKKNLQQT [IQUB]", "protein stability index": 2.87}
{"Sequence": "EDVRIFFYQSPYDSEQVPQALRRL [NCF4]", "protein stability index": 2.79}
{"Sequence": "LKAKKVWYDMFRDAAAILLDEQNK [ZMAT5]", "protein stability index": 2.38}
{"Sequence": "DLASAAAKQIMEETYKMEFMYSGV [INTS4]", "protein stability index": 2.58}
{"Sequence": "LNMAKKSVDIVSSHWDLNHTHPSA [PLD5]", "protein stability index": 3.1}

Value of measured protein stability index for the entry AECALVSLKEAEFYDKQLKVLLSG [ZFYVE21] : 2.86

Value of measured protein stability index for the entry HLMPFRQHCRQSLASRIRSNKKML [KLHL14] : 2.39

Value of measured protein stability index for the entry RQRCMPEEDLQSQSETQGLEGAQA [MAGEA10] : 5.44

Value of measured protein stability index for the entry REPDWGDGDAPGSLLPAQVAACAQ [CEBPD] : 5.04

Value of measured protein stability index for the entry RLKKVENIKIWLSLRSYLKRRGPQ [PHTF1] : 2

Value of measured protein stability index for the entry LTQPLQGGTPHCEPCQLPSESPGS [DNAAF3] : 5.17

* * *

Catalogue of protein stability index readings, one per entry.
Experiment: protein stability index of a GFP-peptide fusion (GPS, HEK-293T) (PSI 1-6); higher = more stable
Conditions: treatment: MLN4924 1 uM, 8 h; c terminus: a fixed tail appended
# output: bare number, no unit

{"Sequence": "TPEEQGELEPLKGNFDWEAIFDAG [FOXJ1]", "protein stability index": 5.41}

Let us move to another entry and its protein stability index.
Value of measured protein stability index for the entry LVRTLYKVQNECPGITRVYSIGRS [CPN1] : 2.11

* * *

Test: protein stability index of a GFP-peptide fusion (GPS, HEK-293T) (PSI 1-6); higher = more stable
Settings: treatment: MLN4924 1 uM, 8 h; c terminus: a fixed tail appended
Assay Readout: protein stability index
# output: bare number, no unit

In the examples that follow, each entry is paired with its recorded protein stability index.
{"Sequence": "REPDWGDGDAPGSLLPAQVAACAQ [CEBPD]", "Assay Readout": "protein stability index", "Readout Number": 4.99}
{"Sequence": "AEGRTGFPWIDAIMTQLRQEGWIH [CRY1]", "Assay Readout": "protein stability index", "Readout Number": 2.13}
{"Sequence": "ISCVERGWSTPPKCRSTISAEKCG [CFHR2]", "Assay Readout": "protein stability index", "Readout Number": 3.09}
{"Sequence": "VFFFIFFVQDVLFVLQAIGIPGWG [SCAMP3]", "Assay Readout": "protein stability index", "Readout Number": 2.93}

Let us move to another entry and its protein stability index.
Value of measured protein stability index for the entry LKFLEENKIKVMHKQLLLFHNAVS [ARFIP2] : 2.17

* * *

Experiment: protein stability index of a GFP-peptide fusion (GPS, HEK-293T) (PSI 1-6); higher = more stable
Conditions: treatment: DMSO; c terminus: a fixed tail appended
Assign class by protein stability index: not lower than 3 means MET; lower than 3 means NOT MET.

Recorded results for 3 sequences are shown here.
{"Sequence": "PGVHRRYSALREESAKDWETSPLP [PPFIA4]", "Category": "MET"}
{"Sequence": "LAYYEVCSWKGATKQRIQDQKVPY [CHIT1]", "Category": "NOT MET"}
{"Sequence": "NISGHTNTNTLKVPECRLAEDLGN [SPOPL]", "Category": "MET"}

query: Please check the record DEGGITKQPPVTQSKTASDKSPST [FBF1] and state if its protein stability index is at or above 3.
result: MET

query: Please check the record FGEVRPYFYLGGARGAGPPEPLRI [TRIM35] and state if its protein stability index is at or above 3.
result: NOT MET

query: Please check the record HPMYRRLVHSAVDVPTIQEKVNEG [ZMYND11] and state if its protein stability index is at or above 3.
result: MET

* * *

Test: protein stability index of a GFP-peptide fusion (GPS, HEK-293T) (PSI 1-6); higher = more stable
Details: treatment: DMSO; c terminus: a fixed tail appended
Catalogue of protein stability index readings, one per entry.
# output: bare number, no unit

In the examples that follow, each entry is paired with its recorded protein stability index.
{"Sequence": "VLSLKEGAREEDLDAVEAQIGCKL [FBXO3]", "Readout Number": 5.24}
{"Sequence": "VKVTFNKQDSLVILTIMATLKIRN [TMEM106C]", "Readout Number": 2.92}
{"Sequence": "DALLGIDDLETMPDDLLTTLDDTC [ATF4]", "Readout Number": 5.17}
{"Sequence": "SLQFDEKCLSIMLAEWEANPLICP [RPAIN]", "Readout Number": 2.33}
{"Sequence": "ALRERWLLEGTPSSASEGDEDLRR [PALM]", "Readout Number": 5}

Value of measured protein stability index for the entry DPNKMAFGCEECGKKYNTMLGYKR [PLAGL1] : 3.07

Value of measured protein stability index for the entry QYQQVPVEIVKSDFHKPFLGGFRH [IQUB] : 2.7

Value of measured protein stability index for the entry QELQIDDNEYAYLKAIIFFDPDAK [HNF4A] : 2.53

Value of measured protein stability index for the entry MSEPAGDVRQNPCGSKACRRLFGP [CDKN1A] : 3.58

Value of measured protein stability index for the entry RFYFENLLAKNSKPIHTTILNPHV [CAMK2B] : 2.2

Value of measured protein stability index for the entry EAANLLIPAVGSSLSEALDLIESD [MYBL2] : 4.81

Value of measured protein stability index for the entry EHQYRLPPMGKAFQELAGKELCAM [SPDEF] : 3.19

* * *

Assay: protein stability index of a GFP-peptide fusion (GPS, HEK-293T) (PSI 1-6); higher = more stable
Details: treatment: DMSO; c terminus: a fixed tail appended
Grouping key: protein stability index. Bins: group 1 (below 3), group 2 (3 to below 4), group 3 (4 or more)

Recorded results for 6 sequences are shown here.
{"Sequence": "TFTASFSGKVFPFFAVWKKGSCLT [TRIM15]", "Category": "group 1"}
{"Sequence": "LDMRRDHEEQLQRLKLLKDREVDA [FBF1]", "Category": "group 3"}
{"Sequence": "GLTFQGLLPLTELSVCPLEGSREH [PLEKHN1]", "Category": "group 2"}
{"Sequence": "SYVHILSAILQFPSTLGRCKAFST [OR10K2]", "Category": "group 2"}
{"Sequence": "MYDEKAHEWKSLAPMDAPRYQHGI [KLHL13]", "Category": "group 2"}
{"Sequence": "QGGKDFNVPLSISRLTPGGKAAQA [PDLIM7]", "Category": "group 3"}

query: Looking at RQIVSGLKYLHEQEILHRDLKLGN [PLK2] , which class would you pick?
result: group 1

query: Looking at RSCGGGVTSQERHCLQQRRKSVPG [ADAMTSL2] , which class would you pick?
result: group 3

query: Looking at ESQVKSLCEKAKEILTKESNVQEV [PPP2CA] , which class would you pick?
result: group 3

query: Looking at KKALSGLSSRWKNWWIRGILTLTM [CDS1] , which class would you pick?
result: group 1

Hello, the source for this data is the supplement of paper PMC10567573, in case you need it.
